Parameter: Blackgrass plant response rating. Scope: all listed entries.
Tested on: blackgrass
experimental-details: Test B pre/postemergence blackgrass
Format: in vivo, Alopecurus myosuroides
stated-conditions: Preemergence, Rate 250 g/ha; scale 0 to 10, 0 is no effect, 10 is complete control
Description: […] At the same time, these crop and weed species were also treated with postemergence applications of test chemicals formulated in the same manner. […] Treated plants and controls were maintained in a greenhouse for twelve to sixteen days, after which all species were compared to controls and visually evaluated. […]
Kindly provide the number alone.

| molecule | Blackgrass plant response rating |
| --- | --- |
| CC(C)N(C(=O)n1oc(=O)n(Cc2ccco2)c1=O)c1ccc(F)cc1 | 4 |
| CC1CCCCC1n1c(=O)on(C(=O)N(c2ccc(F)cc2F)C(C)C)c1=O (stereo not shown) | 3 |

Q: Quickly give me recorded Blackgrass plant response rating for CCOC(=O)CC(C(=O)OCC)n1c(=O)on(C(=O)N(c2ccc(F)cc2F)C(C)C)c1=O (stereo not shown)
Result: 6

Q: Quickly give me recorded Blackgrass plant response rating for `Cc1noc(C)c1-n1c(=O)on(C(=O)N(c2ccc(F)cc2)C(C)C)c1=O`
Result: 2

----------
Tested on: crabgrass
experimental-details: Test B pre/postemergence crabgrass
Assay type: in vivo, Digitaria sanguinalis
stated-conditions: Rate 250 g/ha, Postemergence; scale of 0 to 10 where 0 is no effect and 10 is complete control
property: Plant response rating, Crabgrass
Kindly provide the number alone.

// solved cases for Plant response rating, Crabgrass follow
| chemical-smiles | Plant response rating, Crabgrass |
| --- | --- |
| Cc1cccc(C)c1-n1c(=O)on(C(=O)N(c2ccc(Cl)cc2Cl)C2CCC2)c1=O | 0 |
| CC(C)N(C(=O)n1oc(=O)n(CC2CC2)c1=O)c1ccccc1 | 9 |

API: the following record is the query input.
Q: Given `COCn1c(=O)on(C(=O)N(c2ccc(Cl)cc2)C(C)C)c1=O` , report its Plant response rating, Crabgrass on crabgrass.
Result: 9

----------
Parameter: Rice plant response rating. Scope: all listed entries.
Tested on: rice
experimental-details: Test B flood test rice
Assay type: in vivo, Oryza sativa
stated-conditions: Rate 500 g/ha, listed under Postemergence (flood test species); scale 0 to 10, 0 no effect, 10 complete control
Kindly provide the number alone.

// solved cases for Rice plant response rating follow
| compound | tgt | property | assay-result |
| --- | --- | --- | --- |
| Cc1ccccc1-n1c(=O)on(C(=O)N(c2ccc(F)cc2F)C2CC2)c1=O | rice | Rice plant response rating | 0 |
| CC(C)N(C(=O)n1oc(=O)n(C2CCCCC2C(F)(F)F)c1=O)c1ccc(F)cc1 (centres unmarked) | rice | Rice plant response rating | 0 |
| CC(C)N(C(=O)n1oc(=O)n(Cc2cccs2)c1=O)c1ccc(F)cc1 | rice | Rice plant response rating | 2 |
| CCCn1c(=O)on(C(=O)N(c2ccc(Cl)cc2)C(C)C)c1=O | rice | Rice plant response rating | 0 |

Q: Quickly give me recorded Rice plant response rating for `CCN(CC)C(=O)n1oc(=O)n(-c2cccc3c2CCCC3)c1=O`
Result: 0

----------
Parameter: Crabgrass plant response rating. Scope: all listed entries.
Tested on: crabgrass
experimental-details: Test B pre/postemergence crabgrass
Assay type: in vivo, Digitaria sanguinalis
stated-conditions: Rate 500 g/ha, Postemergence; 0 to 10 scale (0 no effect, 10 complete control)
Kindly provide the number alone.

// solved cases for Crabgrass plant response rating follow
| molecule | Crabgrass plant response rating |
| --- | --- |
| CC(C)Oc1cc(-n2c(=O)on(C(=O)N(c3ccc(F)cc3)C(C)C)c2=O)c(Cl)cc1Cl [Compound 43] | 2 |
| Cc1ccccc1-n1c(=O)on(C(=O)N(C2=CCOCC2)C(C)C)c1=O [Compound 10] | 9 |
| Cc1cccc(C)c1-n1c(=O)on(C(=O)N(c2ccccc2)C(C)C)c1=O [Compound 46] | 3 |

API: the following record is the query input.
Q: Given CCN(CC)C(=O)n1oc(=O)n(-c2ccc(OC)cc2)c1=O [Compound 1] , report its Crabgrass plant response rating on crabgrass.
Result: 8

----------
Test system: rape
experimental-details: Test B pre/postemergence rape
Type: in vivo, Brassica napus
stated-conditions: Preemergence, Rate 500 g/ha; scale of 0 to 10 where 0 is no effect and 10 is complete control
property: Plant response rating, Rape
Kindly provide the number alone.

| chemical-smiles | tgt | Plant response rating, Rape |
| --- | --- | --- |
| CC(C)N(C(=O)n1oc(=O)n(C2CCCC2)c1=O)c1ccc(F)cc1F | rape | 7 |

Q: Quickly give me recorded Plant response rating, Rape for `CC(C)N(C(=O)n1oc(=O)n(C2CC2)c1=O)c1ccc(Cl)cc1`
Result: 9

Q: Quickly give me recorded Plant response rating, Rape for `CC(C)N(C(=O)n1oc(=O)n(CC2CC2)c1=O)c1ccc(F)cc1`
Result: 10

Q: Quickly give me recorded Plant response rating, Rape for `CC(C)N(C(=O)n1oc(=O)n(CC(=O)OC(C)(C)C)c1=O)c1ccc(F)cc1`
Result: 0

Q: Quickly give me recorded Plant response rating, Rape for `C=CCn1c(=O)on(C(=O)N(c2ccc(F)cc2)C2CCC2)c1=O`
Result: 7

Q: Quickly give me recorded Plant response rating, Rape for `CC(C)N(C(=O)n1oc(=O)n(CCC(F)=C(F)F)c1=O)c1ccc(F)cc1`
Result: 2

Q: Quickly give me recorded Plant response rating, Rape for `CC(C)N(C(=O)n1oc(=O)n(CC(=O)C2CCC2)c1=O)c1ccccc1`
Result: 0

----------
System: crabgrass
experimental-details: Test B pre/postemergence crabgrass
Type: in vivo, Digitaria sanguinalis
stated-conditions: Preemergence, Rate 250 g/ha; scale of 0 to 10 where 0 is no effect and 10 is complete control
property: Crabgrass plant response rating
Kindly provide the number alone.

| compound | Crabgrass plant response rating |
| --- | --- |
| C=CCn1c(=O)on(C(=O)N(c2ccc(F)cc2)C(C)C(=O)OCC)c1=O (stereo not drawn) | 0 |
| CC(C)N(C(=O)n1oc(=O)n(C2CCCCCC2)c1=O)c1ccc(Cl)cc1 | 2 |
| CC(C)C(C)n1c(=O)on(C(=O)N(c2ccc(F)cc2F)C(C)C)c1=O (stereo not drawn) | 9 |
| Cc1cccc(C)c1-n1c(=O)on(C(=O)N(c2ccc(Cl)cc2Cl)C2CCC2)c1=O | 0 |
| CC(C)N(C(=O)n1oc(=O)n(C2CC3CCC2C3)c1=O)c1ccc(F)cc1F (stereo not drawn) | 3 |
| CC(C)N(C(=O)n1oc(=O)n(CC#C[Si](C)(C)C)c1=O)c1ccc(F)cc1 | 3 |
| Cc1ccccc1-n1c(=O)on(C(=O)N(c2ccc(N(C)C)cc2)C(C)C)c1=O | 2 |
| CC(C)N(C(=O)n1oc(=O)n(C(C)CCl)c1=O)c1ccc(F)cc1 (stereo not drawn) | 10 |

Q: Quickly give me recorded Crabgrass plant response rating for `CC(C)N(C(=O)n1oc(=O)n(CC2CC2)c1=O)c1ccc(F)cc1`
Result: 9

Q: Quickly give me recorded Crabgrass plant response rating for `CC(C)N(C(=O)n1oc(=O)n(CC(=O)OC(C)(C)C)c1=O)c1ccc(F)cc1`
Result: 2

Q: Quickly give me recorded Crabgrass plant response rating for `CC(C)N(C(=O)n1oc(=O)n(CC2(C)COC2)c1=O)c1ccc(F)cc1`
Result: 10

Q: Quickly give me recorded Crabgrass plant response rating for `CCCCCC#CCn1c(=O)on(C(=O)N(c2ccc(F)cc2)C(C)C)c1=O`
Result: 0

----------
System: purple nutsedge
experimental-details: Test B pre/postemergence purple nutsedge
Assay type: in vivo, Cyperus rotundus
stated-conditions: Preemergence, Rate 250 g/ha
Parameter: Nutsedge plant response rating (0 to 10 scale). Scope: all listed entries.
Kindly provide the number alone.

// solved cases for Nutsedge plant response rating (0 to 10 scale) follow
| compound | assay-result |
| --- | --- |
| CC(C)N(C(=O)n1oc(=O)n(CC2CC2)c1=O)c1ccccc1 [Compound 568] | 0 |
| CC(C)N(C(=O)n1oc(=O)n(CCCCF)c1=O)c1ccccc1 [Compound 581] | 4 |
| CCC(=O)Cn1c(=O)on(C(=O)N(c2ccc(Cl)cc2)C(C)C)c1=O [Compound 553] | 0 |

API: the following record is the query input.
Q: Quickly give me recorded Nutsedge plant response rating (0 to 10 scale) for CCCCCn1c(=O)on(C(=O)N(c2ccc(Cl)cc2)C(C)C)c1=O [Compound 528]
Result: 0

----------
Tested on: crabgrass
experimental-details: Test B pre/postemergence crabgrass
Type: in vivo, Digitaria sanguinalis
stated-conditions: Postemergence, Rate 125 g/ha; scale 0 to 10, 0 is no effect, 10 is complete control
property: Crabgrass plant response rating
Kindly provide the number alone.

| chemical-smiles | Crabgrass plant response rating |
| --- | --- |
| CC(C)C(=O)Cn1c(=O)on(C(=O)N(c2ccc(Cl)cc2)C(C)C)c1=O | 3 |

Q: Quickly give me recorded Crabgrass plant response rating for `CC(C)N(C(=O)n1oc(=O)n(CCC2OCCO2)c1=O)c1ccc(Cl)cc1`
Result: 8

Q: Quickly give me recorded Crabgrass plant response rating for `COCn1c(=O)on(C(=O)N(c2ccc(Cl)cc2)C(C)C)c1=O`
Result: 8

Q: Quickly give me recorded Crabgrass plant response rating for `CC(C)N(C(=O)n1oc(=O)n(CC2CC2)c1=O)c1ccccc1`
Result: 8

Q: Quickly give me recorded Crabgrass plant response rating for `CCOC(=O)C=C(Cn1c(=O)on(C(=O)N(c2ccc(F)cc2F)C(C)C)c1=O)OCC`
Result: 2
